List of apparent KD of MS2 coat protein values.
Test system: MS2 coat protein
Assay Overview: apparent KD of MS2 coat protein, switch ON state; designed switch direction (-1 OFF switch, 1 ON switch): -1; higher = weaker reporter binding
Stated Conditions: FMN input: 0 or 200 uM; Eterna round: R93 (includes R88 designs)
Value Type: apparent KD of MS2 coat protein (nM)

Sequence Chain	Target Or System	Value Type	Measured Result
AUAAAGUGAGGAUAUACAUGAGGAUCACCCAUGUAAGAAAUAAAAUAAAUAAAGGGAAGUAGAAGGCACAAAUA [Denovo 1]	MS2 coat protein	apparent KD of MS2 coat protein	35.8
AAGAAGGGAGGAUAUACUAAAGAAAUGAAAAGAAAUAAAGAACAUGAGGAUCACCCAUGUAGAAGGCCCAAGAA [Nehesy]	MS2 coat protein	apparent KD of MS2 coat protein	29.7
AUAAAACAUGAGGAUCACCCAUGUGAGGAUAUAGGAAACAAACAAACAAACAAACAAACUAGAAGGCACAAUAA [Amethyst 10]	MS2 coat protein	apparent KD of MS2 coat protein	13
AAGUAUCGAGGAUAUACAUAGAUACAGAUUCAUGUAGAACUACAUGAGGAUCACCCAUGUAGAAGGCGAUAAUA [AJ 33]	MS2 coat protein	apparent KD of MS2 coat protein	31.8
GUCCGACAUGAGGAUCACCCAUGUAAGGAUAUGUAUCCUUCGGCCCGAACCAGAGGAAGCAGAAGGUACAGGGA [Oneserqu]	MS2 coat protein	apparent KD of MS2 coat protein	24.8
AGCUAGUGAGGAUAUACGAACAAGUAAAAGGACUGUAAGGGACAUGAGGAUCACCCAUGUAGAAGGCACUAGCA [Diamond 60]	MS2 coat protein	apparent KD of MS2 coat protein	29.6
AACAUGUCAGGAUAUGUACGAAAAAAUAAAAAAAUAAAAGUACAGAAGGGACAUGAGGAUCACCCAUGUCAAAA [EX4 394: Minimal 7]	MS2 coat protein	apparent KD of MS2 coat protein	33.4
UACUUACAUGAGGAUCACCCAUGUCAGGAUAUGCGCUCAGAGUAUAUAUAAGAUUCAAGCAGAAGGGACACUAA [JR_Exc001_Sub204]	MS2 coat protein	apparent KD of MS2 coat protein	34.8
AAAAACCUAGGAUAUACAUGAGGAUCACCCAUGUAAAGAAAAAAAAAGGGAAAAAAAAGUAGAAGGAGGAAGAA [JR_Exc003_Sub1201]	MS2 coat protein	apparent KD of MS2 coat protein	16.6
AAAAAGCGAGGAUAUACGAGUCAAAGAAAAGACAAAGGGAAACAUGAGGAUCACCCAUGUAGAAGGCGCAAAAA [Fiskers exclusion D2 62% 1]	MS2 coat protein	apparent KD of MS2 coat protein	23.7
CUCAAGUUAGGAUAUCCAAGAAAAGAAGAGAAAGAAAAGAAGGAGAAGGAACAUGAGGAUCACCCAUGUAAGAA [EteRNA is fun!]	MS2 coat protein	apparent KD of MS2 coat protein	32.8
AAAACGGUAGGAUAUACGAUUUGGUACUAGACCGAGGAACCACAUGAGGAUCACCCAUGUAGAAGGACCAAAAA [EX2 Malc#19]	MS2 coat protein	apparent KD of MS2 coat protein	13
